test-target: AKT1 E17K (Homo sapiens (Human), UniProt P31749, E17K)
Sequence (P31749 whole entry E17K): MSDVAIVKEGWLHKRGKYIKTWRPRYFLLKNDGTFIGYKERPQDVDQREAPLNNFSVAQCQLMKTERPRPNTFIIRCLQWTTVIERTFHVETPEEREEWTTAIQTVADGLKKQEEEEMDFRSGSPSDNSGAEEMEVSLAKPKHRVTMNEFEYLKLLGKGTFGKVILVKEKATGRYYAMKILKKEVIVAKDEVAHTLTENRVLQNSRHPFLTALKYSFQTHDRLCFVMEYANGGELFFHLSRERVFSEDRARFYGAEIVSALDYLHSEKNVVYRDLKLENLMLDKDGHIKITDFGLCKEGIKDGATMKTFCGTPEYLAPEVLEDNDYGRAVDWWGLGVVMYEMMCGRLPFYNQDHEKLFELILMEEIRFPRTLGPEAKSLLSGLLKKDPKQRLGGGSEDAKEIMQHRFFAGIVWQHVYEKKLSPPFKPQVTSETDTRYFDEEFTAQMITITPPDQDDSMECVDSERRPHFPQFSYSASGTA
test-details: Live cell target engagement (NanoBRET) in HEK293 cells
Format: cell-based
stated-conditions: HEK293, 2 hours at 37° C.
pIC50: −log10 of the molar value.
Below: a set of entries, each annotated with reported pIC50.
observable: pIC50

{"molecule": "Cc1ccc2nc(-c3cccnc3N)n(-c3ccc(C4(NC(=O)Cc5ccc(C=O)c(O)c5F)CC4)cc3)c2n1", "observable": "pIC50", "result": "> 7.00"}
{"molecule": "Nc1ncccc1-c1nc2cccnc2n1-c1ccc(CNC(=O)Cc2ccc(C=O)c(O)c2F)cc1", "observable": "pIC50", "result": "> 7.00"}
{"molecule": "Nc1ncccc1-c1nc2ccc(-c3cccc(N4CCOCC4)c3)nc2n1-c1ccc(CNC(=O)Cc2ccc(C=O)c(O)c2Cl)cc1", "observable": "pIC50", "result": "> 7.00"}
{"molecule": "COc1c(CCNCc2ccc(-n3c(-c4cccnc4N)nc4ccc(-c5ccccc5)nc43)cc2)ccc(C=O)c1O", "observable": "pIC50", "result": "6.30 to 7.00"}
{"molecule": "Nc1ncccc1-c1nc2ccc(-c3cccnc3)nc2n1-c1ccc(CNC(=O)Cc2ccc(C=O)c(O)c2)cc1", "observable": "pIC50", "result": "> 7.00"}
{"molecule": "Nc1ncccc1-c1nc2cccnc2n1-c1ccc(CNC(=O)C(F)(F)c2ccc(C=O)c(O)c2)cc1", "observable": "pIC50", "result": "> 7.00"}
{"molecule": "CC(=O)Nc1c(C=O)ccc(CCNCc2ccc(-n3c(-c4cccnc4N)nc4ccc(-c5ccccc5)nc43)cc2)c1F", "observable": "pIC50", "result": "> 7.00"}
{"molecule": "Nc1ncccc1-c1nc2ccc(-c3ccccc3)nc2n1-c1ccc(CC(=O)NC2(c3ccc(C=O)c(O)c3)CC2)cc1", "observable": "pIC50", "result": "> 7.00"}
{"molecule": "Nc1ncccc1-c1nc2ccc(-c3ccccc3)nc2n1-c1ccc(CNC(=O)c2cc(Cl)c(O)c(C=O)c2)cc1", "observable": "pIC50", "result": "> 7.00"}
{"molecule": "Nc1ncccc1-c1nc2ccc(-n3cccn3)nc2n1-c1ccc(CNC(=O)Cc2ccc(C=O)c(O)c2)cc1", "observable": "pIC50", "result": "> 7.00"}
{"molecule": "Nc1ncccc1-c1nc2ccc(-c3ccccc3)nc2n1-c1ccc(C(CO)NC(=O)Cc2ccc(C=O)c(O)c2F)cc1 (stereo not shown)", "observable": "pIC50", "result": "> 7.00"}
{"molecule": "Nc1ncccc1-c1nc2ccc(-c3ccccc3)nc2n1-c1ccc(CN2CCC(c3ccc(O)c(C=O)c3)CC2)cc1", "observable": "pIC50", "result": "> 7.00"}
{"molecule": "COc1cc(CCNCc2ccc(-n3c(-c4cccnc4N)nc4ccc(-c5ccccc5)nc43)cc2)ccc1C=O", "observable": "pIC50", "result": "> 7.00"}
{"molecule": "Nc1ncccc1-c1nc2cccnc2n1-c1ccc(CNC(=O)c2cnc(O)c(C=O)c2)cc1", "observable": "pIC50", "result": "< 6.30"}
{"molecule": "Nc1ncccc1-c1nc2ccc(-c3ccccc3)nc2n1-c1ccc(CNC(=O)c2ccc(O)c(C=O)c2)cc1", "observable": "pIC50", "result": "> 7.00"}
{"molecule": "Nc1ncccc1-c1nc2ccc(-c3ccccc3)nc2n1-c1ccc(CNC(=O)Cc2ccc(C=O)c(O)c2)cc1", "observable": "pIC50", "result": "> 7.00"}
{"molecule": "CN(CCc1ccc(C=O)c(O)c1)C(=O)c1ccc(-n2c(-c3cccnc3N)nc3ccc(-c4ccccc4)nc32)cc1", "observable": "pIC50", "result": "6.30 to 7.00"}
{"molecule": "C[C@@H](NCCc1ccc(O)c(C=O)c1)c1ccc(-n2c(-c3cccnc3N)nc3ccc(-c4ccccc4)nc32)cc1", "observable": "pIC50", "result": "< 6.30"}
{"molecule": "Nc1ncccc1-c1nc2ccc(-c3ccccc3)nc2n1-c1ccc(CNCCc2ccc(C=O)c(O)c2F)cc1", "observable": "pIC50", "result": "> 7.00"}
{"molecule": "CC(=O)Nc1cccc(-c2ccc3nc(-c4cccnc4N)n(-c4ccc(CNC(=O)Cc5ccc(C=O)c(O)c5)cc4)c3n2)c1", "observable": "pIC50", "result": "> 7.00"}
{"molecule": "Nc1ncccc1-c1nc2ccc(-c3ccccc3)nc2n1-c1ccc(CNC(=O)Cc2cnc(C=O)c(O)c2)cc1", "observable": "pIC50", "result": "> 7.00"}
{"molecule": "Nc1ncccc1-c1nc2ccc(-c3ccncc3)nc2n1-c1ccc(CNCCc2ccc(C=O)c(O)c2)cc1", "observable": "pIC50", "result": "> 7.00"}
{"molecule": "C[C@H](NCCc1ccc(O)c(C=O)c1)c1ccc(-n2c(-c3cccnc3N)nc3ccc(-c4ccccc4)nc32)cc1", "observable": "pIC50", "result": "6.30 to 7.00"}
{"molecule": "Nc1ncccc1-c1nc2cccnc2n1-c1ccc(CNC(=O)C2(c3ccc(C=O)c(O)c3)CC2)cc1", "observable": "pIC50", "result": "> 7.00"}
{"molecule": "Nc1ncccc1-c1nc2cccnc2n1-c1ccc(CNC(=O)C(F)c2ccc(C=O)c(O)c2)cc1 (stereo not shown)", "observable": "pIC50", "result": "> 7.00"}
{"molecule": "Nc1ncccc1-c1nc2ccc(N3CC4CCC(C3)O4)nc2n1-c1ccc(CNC(=O)Cc2ccc(C=O)c(O)c2)cc1", "observable": "pIC50", "result": "> 7.00"}
{"molecule": "Nc1ncccc1-c1nc2ccc(-c3ccccc3)nc2n1-c1ccc(CNCCCc2ccc(O)c(C=O)c2)cc1", "observable": "pIC50", "result": "> 7.00"}
{"molecule": "CC(=O)Nc1c(C=O)ccc(CCNCc2ccc(-n3c(-c4cccnc4N)nc4cccnc43)cc2)c1F", "observable": "pIC50", "result": "< 6.30"}

###

Below: a set of entries, each annotated with reported IC50.
test-target: UniProt P31751
Sequence (P31751 whole entry): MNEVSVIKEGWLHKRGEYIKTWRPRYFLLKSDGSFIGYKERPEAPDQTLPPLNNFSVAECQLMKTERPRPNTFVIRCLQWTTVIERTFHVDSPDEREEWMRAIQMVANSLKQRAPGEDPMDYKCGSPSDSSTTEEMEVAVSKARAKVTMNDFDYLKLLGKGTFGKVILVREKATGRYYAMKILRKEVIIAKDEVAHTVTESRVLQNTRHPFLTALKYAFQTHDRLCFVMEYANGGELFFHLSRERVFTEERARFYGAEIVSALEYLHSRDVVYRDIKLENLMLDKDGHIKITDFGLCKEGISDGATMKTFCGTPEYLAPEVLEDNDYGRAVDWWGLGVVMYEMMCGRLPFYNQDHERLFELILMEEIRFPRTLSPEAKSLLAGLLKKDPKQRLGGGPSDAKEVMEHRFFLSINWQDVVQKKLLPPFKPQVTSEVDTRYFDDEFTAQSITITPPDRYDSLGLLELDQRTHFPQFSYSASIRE
test-details: Live cell target engagement (NanoBRET) in HEK293 cells
Assay type: cell-based
stated-conditions: HEK293, 2 hours at 37° C.

{"compound": "Nc1ncccc1-c1nc2ccc(C3CC3)nc2n1-c1ccc(CNC(=O)c2ccc(O)c(C=O)c2)cc1", "IC50": "> 500 nM"}
{"compound": "Nc1ncccc1-c1nc2cccnc2n1-c1ccc(CNC(=O)c2ccc(O)c(C=O)c2)cc1", "IC50": "> 500 nM"}
{"compound": "Nc1ncccc1-c1nc2cccnc2n1-c1ccc(CNC(=O)C(F)c2ccc(C=O)c(O)c2)cc1 (stereo not shown)", "IC50": "> 500 nM"}
{"compound": "CC(C)(C(=O)NCc1ccc(-n2c(-c3cccnc3N)nc3ccc(-c4ccccc4)nc32)cc1)c1ccc(C=O)c(O)c1", "IC50": "> 500 nM"}
{"compound": "Nc1ncccc1-c1nc2ccc(-c3ccccc3)nc2n1-c1ccc(C(CO)NC(=O)Cc2ccc(C=O)c(O)c2F)cc1 (stereo not shown)", "IC50": "> 500 nM"}
{"compound": "Nc1ncccc1-c1nc2cccnc2n1-c1ccc(CNC(=O)C2(c3ccc(C=O)c(O)c3)CC2)cc1", "IC50": "> 500 nM"}
{"compound": "Nc1ncccc1-c1nc2cccnc2n1-c1ccc(CNC(=O)Cc2ccc(C=O)c(O)c2)cc1", "IC50": "> 500 nM"}
{"compound": "Nc1ncccc1-c1nc2ccc(-c3ccccc3)nc2n1-c1ccc(CNC(=O)Cc2ccc(C=O)c(O)c2C(F)(F)F)cc1", "IC50": "> 500 nM"}
{"compound": "Nc1ncccc1-c1nc2ccc(N3CC4CCC(C3)O4)nc2n1-c1ccc(CNC(=O)Cc2ccc(C=O)c(O)c2)cc1", "IC50": "> 500 nM"}
{"compound": "Nc1ncccc1-c1nc2ccc(-c3ccccc3)nc2n1-c1ccc(CC(=O)NCc2ccc(C=O)c(O)c2)cc1", "IC50": "> 500 nM"}
{"compound": "Nc1ncccc1-c1nc2ccc(-n3cccn3)nc2n1-c1ccc(CNC(=O)Cc2ccc(C=O)c(O)c2)cc1", "IC50": "100 to 500 nM"}
{"compound": "COc1c(CCNCc2ccc(-n3c(-c4cccnc4N)nc4ccc(-c5ccccc5)nc43)cc2)ccc(C=O)c1O", "IC50": "100 to 500 nM"}
{"compound": "CN(CCc1ccc(-n2c(-c3cccnc3N)nc3ccc(-c4ccccc4)nc32)cc1)Cc1ccc(C=O)c(O)c1", "IC50": "100 to 500 nM"}
{"compound": "CN(CCc1ccc(C=O)c(O)c1)C(=O)c1ccc(-n2c(-c3cccnc3N)nc3ccc(-c4ccccc4)nc32)cc1", "IC50": "> 500 nM"}
{"compound": "Nc1ncccc1-c1nc2cccnc2n1-c1ccc(CNCCc2ccc(C=O)c(O)c2F)cc1", "IC50": "> 500 nM"}
{"compound": "Nc1ncccc1-c1nc2ccc(-c3ccccc3)nc2n1-c1ccc(C(=O)NCCc2ccc(C=O)c(O)c2)cc1", "IC50": "100 to 500 nM"}
{"compound": "CC(C)(O)C#Cc1ccc2nc(-c3cccnc3N)n(-c3ccc(CNC(=O)Cc4ccc(C=O)c(O)c4)cc3)c2n1", "IC50": "> 500 nM"}
{"compound": "Nc1ncccc1-c1nc2ccc(-c3cccc(N4CCOCC4)c3)nc2n1-c1ccc(CNC(=O)c2cc(F)c(O)c(C=O)c2)cc1", "IC50": "100 to 500 nM"}
{"compound": "COc1cc(CCNCc2ccc(-n3c(-c4cccnc4N)nc4ccc(-c5ccccc5)nc43)cc2)ccc1C=O", "IC50": "100 to 500 nM"}
{"compound": "Nc1ncccc1-c1nc2cccnc2n1-c1ccc(CNC(=O)Cc2ccc(C=O)c(NC(=O)C3CC3)c2)cc1", "IC50": "> 500 nM"}
{"compound": "CS(=O)(=O)Nc1cccc(-c2ccc3nc(-c4cccnc4N)n(-c4ccc(CNCCc5ccc(C=O)c(O)c5)cc4)c3n2)c1", "IC50": "100 to 500 nM"}
{"compound": "CC(=O)Nc1cc(CCNCc2ccc(-n3c(-c4cccnc4N)nc4cccnc43)cc2)ccc1C=O", "IC50": "> 500 nM"}
{"compound": "Nc1ncccc1-c1nc2ccc(C3CC3)nc2n1-c1ccc(CNCCc2ccc(C=O)c(O)c2)cc1", "IC50": "> 500 nM"}
{"compound": "Nc1ncccc1-c1nc2ccc(-c3ccccc3)nc2n1-c1ccc(C2(NC(=O)Cc3ccc(C=O)c(O)c3F)CC2)cc1", "IC50": "< 100 nM"}
{"compound": "Nc1ncccc1-c1nc2ccc(-c3ccccc3)nc2n1-c1ccc(NC(=O)Cc2ccc(O)c(C=O)c2)cc1", "IC50": "100 to 500 nM"}
{"compound": "Nc1ncccc1-c1nc2ccc(-c3ccccc3)nc2n1-c1ccc(CCNC(=O)c2ccc(C=O)c(O)c2)cc1", "IC50": "100 to 500 nM"}
{"compound": "Nc1ncccc1-c1nc2ccc(-c3ccccc3)nc2n1-c1ccc(CNC(=O)Cc2ccc(C=O)c(O)c2)cc1", "IC50": "100 to 500 nM"}
{"compound": "Nc1ncccc1-c1nc2ccc(-c3cccnc3)nc2n1-c1ccc(CNC(=O)c2ccc(O)c(C=O)c2)cc1", "IC50": "100 to 500 nM"}
